# target_under_test: Amine oxidase [flavin-containing] A (Homo sapiens); also: assay procedure not described here
# Sequence (P21397 whole entry): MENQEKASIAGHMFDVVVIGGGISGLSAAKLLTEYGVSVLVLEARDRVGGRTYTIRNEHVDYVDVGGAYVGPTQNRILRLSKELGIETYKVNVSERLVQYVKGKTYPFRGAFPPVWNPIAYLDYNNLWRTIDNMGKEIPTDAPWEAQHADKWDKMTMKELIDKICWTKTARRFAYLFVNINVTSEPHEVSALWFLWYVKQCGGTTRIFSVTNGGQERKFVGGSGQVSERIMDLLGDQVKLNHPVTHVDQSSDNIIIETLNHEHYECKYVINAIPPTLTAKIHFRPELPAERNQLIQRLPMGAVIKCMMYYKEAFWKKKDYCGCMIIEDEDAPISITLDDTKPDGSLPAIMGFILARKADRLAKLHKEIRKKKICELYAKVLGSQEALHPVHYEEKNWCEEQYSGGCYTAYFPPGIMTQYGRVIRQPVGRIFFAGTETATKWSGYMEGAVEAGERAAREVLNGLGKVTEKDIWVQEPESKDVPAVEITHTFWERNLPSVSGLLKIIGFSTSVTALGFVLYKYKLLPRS
# Format: functional
Entries annotated with measured AC50

Sample records with AC50:
molecule	property_name	result
Cc1nc2ccc(CN(C)c3ccc(C(=O)N[C@@H](CCC(=O)O)C(=O)O)s3)cc2c(=O)[nH]1	AC50	> 30 µM
CCCOc1ccc(C(=O)OCCN(CC)CC)cc1N	AC50	11 µM
NS(=O)(=O)c1cc(-c2nnn[nH]2)c(NCc2cccs2)cc1Cl [AZOSEMIDE]	AC50	> 30 µM
CN(C)C(=O)OC1N=C(c2ccccc2)c2cc(Cl)ccc2N(C)C1=O (centres undefined)	AC50	> 10 µM
COC(=O)[C@H]1[C@@H](OC(=O)c2ccccc2)C[C@@H]2CC[C@H]1N2C	AC50	19 µM

From here, focus on the item given below.
Task item: Please give the measured AC50 for this molecule: CC(=O)N(CC(O)CO)c1c(I)c(C(=O)NCC(O)CO)c(I)c(C(=O)NCC(O)CO)c1I (centres undefined) [IOHEXOL]
Reply: > 10 µM
